Item-by-item account of IC50
biological target: PDE5A1 (human PDE5 from platelets) (Homo sapiens, UniProt O76074); construct: from tissue; host or cells: platelets from fresh blood of human donors (10,000 g supernatant of sonified platelets); test: Inhibition of type 5 phosphodiesterase (PDE5) activity, modified SPA test; assay type: biochemical; conditions: PDE5-containing human platelet lysate, 0.5 μM cGMP, value classes, read-out: PDE5A1 inhibitory values [measured as −logIC50 (mol/l)] (converted)
assayEndpoint: IC50

molecule	experimentalSystem	recordedResult
CC(=O)N[C@H]1CC[C@H](NC(=O)c2c(C)[nH]c3c(-c4c(OCC5CC5)ccc5c4OCO5)ccnc23)CC1 [Example E05]	PDE5A1 (human PDE5 from platelets) (Homo sapiens, UniProt O76074)	< 1 nM
CCC(=O)N1C[C@@H](O)[C@H](NC(=O)c2c(C)[nH]c3c(-c4cc(OC)ccc4OCC4CC4)ccnc23)C1 (relative stereo) [Example E50]	PDE5A1 (human PDE5 from platelets) (Homo sapiens, UniProt O76074)	1 to 10 nM
CCC(=O)N[C@H]1CC[C@H](NC(=O)c2c(C)[nH]c3c(-c4cc(F)ccc4OCC4CC4)ccnc23)CC1 [Example E23]	PDE5A1 (human PDE5 from platelets) (Homo sapiens, UniProt O76074)	< 1 nM
Cc1[nH]c2c(-c3c(OCC4CC4)ccc4c3OCO4)ccnc2c1C(=O)N[C@H]1CC[C@@H](NC(=O)CO)CC1 [Example F04]	PDE5A1 (human PDE5 from platelets) (Homo sapiens, UniProt O76074)	< 1 nM
COc1cc(-c2ccnc3c(C(=O)N[C@H]4CC[C@@H](NC(=O)[C@H](C)O)CC4)c(C)[nH]c23)c(OCC2CC2)cc1F [Example F45]	PDE5A1 (human PDE5 from platelets) (Homo sapiens, UniProt O76074)	< 1 nM
COCC(=O)N[C@H]1CC[C@@H](NC(=O)c2c(C)[nH]c3c(-c4cc(OC)c(F)cc4OCC4CC4)ccnc23)CC1 [Example E69]	PDE5A1 (human PDE5 from platelets) (Homo sapiens, UniProt O76074)	< 1 nM

---

molecular target: PDE5A1 (human PDE5 from platelets) (Homo sapiens); construct: from tissue; host or cells: platelets from fresh blood of human donors (10,000 g supernatant of sonified platelets); test: Inhibition of type 5 phosphodiesterase (PDE5) activity, modified SPA test; assay type: biochemical; settings: PDE5-containing human platelet lysate, 0.5 μM cGMP, value classes, read-out: PDE5A1 inhibitory values [measured as −logIC50 (mol/l)] (converted)
Item-by-item account of IC50

compound	IC50
Cc1[nH]c2c(-c3c(OCC4CC4)ccc4c3OCO4)ccnc2c1C(=O)N[C@H]1CC[C@@H](NC(=O)[C@H](C)O)CC1	< 1 nM
CCC(=O)N1CC[C@@H](NC(=O)c2c(C)[nH]c3c(-c4cc(OC)c(F)cc4OCC4CC4)ccnc23)[C@H](O)C1 (relative stereo)	< 1 nM
CC(=O)N[C@H]1CC[C@@H](NC(=O)c2c(C)[nH]c3c(-c4ccc(F)cc4OCC4CC4)ccnc23)CC1	1 to 10 nM
COc1ccc(OCC2CC2)c(-c2ccnc3c(C(=O)N[C@H]4CC[C@@H](NC(C)=O)CC4)c(C)[nH]c23)c1	< 1 nM

---

target: PDE5A1 (human PDE5 from platelets) (Homo sapiens, UniProt O76074); construct: from tissue; host or cells: platelets from fresh blood of human donors (10,000 g supernatant of sonified platelets); test: Inhibition of type 5 phosphodiesterase (PDE5) activity, modified SPA test; assay type: biochemical; conditions: PDE5-containing human platelet lysate, 0.5 μM cGMP, value classes, read-out: PDE5A1 inhibitory values [measured as −logIC50 (mol/l)] (converted)

molecule	IC50
CCC(=O)N1CCC(NC(=O)c2c(C)[nH]c3c(-c4cc(F)c(OC)cc4OCC4CC4)ccnc23)CC1	< 1 nM
COCC(=O)N1CCC(NC(=O)c2c(C)[nH]c3c(-c4cc(F)ccc4OCC4CC4)ccnc23)CC1	1 to 10 nM
COc1cc(OCC2CC2)c(-c2ccnc3c(C(=O)NC4CCN(C(C)=O)CC4)c(C)[nH]c23)cc1F	< 1 nM
CC(=O)N1CCC(NC(=O)c2c(C)[nH]c3c(-c4cc(C)ccc4OCC4CC4)ccnc23)CC1	1 to 10 nM
CCC(=O)N1CC[C@@H](NC(=O)c2c(C)[nH]c3c(-c4cc(F)ccc4OCC4CC4)ccnc23)[C@H](O)C1 (relative stereo)	1 to 10 nM
COCC(=O)N1CCC(NC(=O)c2c(C)[nH]c3c(-c4cc(OC)c(F)cc4OCC4CC4)ccnc23)CC1	< 1 nM
CCC(=O)N[C@H]1CC[C@H](NC(=O)c2c(C)[nH]c3c(-c4cc(C)ccc4OCC4CC4)ccnc23)CC1	1 to 10 nM
CCC(=O)N1CCC(NC(=O)c2c(C)[nH]c3c(-c4cc(F)ccc4OCC4CC4)ccnc23)CC1	< 1 nM
COCC(=O)N[C@H]1CC[C@H](NC(=O)c2c(C)[nH]c3c(-c4cc(C)ccc4OCC4CC4)ccnc23)CC1	1 to 10 nM
COCC(=O)N[C@H]1CC[C@H](NC(=O)c2c(C)[nH]c3c(-c4cc(OC)c(F)cc4OCC4CC4)ccnc23)CC1	< 1 nM
CCC(=O)N[C@H]1CC[C@@H](NC(=O)c2c(C)[nH]c3c(-c4ccc(F)cc4OCC4CC4)ccnc23)CC1	1 to 10 nM
COc1cc(OCC2CC2)c(-c2ccnc3c(C(=O)NC4CCN(C(=O)CO)CC4)c(C)[nH]c23)cc1F	< 1 nM
Cc1[nH]c2c(-c3ccc(F)cc3OCC3CC3)ccnc2c1C(=O)N[C@H]1CC[C@@H](NC(=O)[C@H](C)O)CC1	1 to 10 nM
COCC(=O)N1CCC(NC(=O)c2c(C)[nH]c3c(-c4c(OCC5CC5)ccc5c4OCO5)ccnc23)CC1	< 1 nM
